Tested on: K4 kissing-loop RNA reporter;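 further: bound reporter read as fluorescence of individual clusters on recovered sequencing chips by microscopy, with normalized cluster intensities fitted with a binding model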
Assay: apparent KD of K4 kissing-loop reporter; higher = weaker reporter binding
Details: Eterna round: R107; input ligand: FMN 200 uM
reported-endpoint: apparent KD of K4 kissing-loop reporter (nM)
The response must be a number in nM with no trailing unit.

Query for K4 kissing-loop RNA reporter: what apparent KD of K4 kissing-loop reporter does the record show for UCUGGAGCAUAUGAUACCAGCAGUGAGAGAGAGGAAGUAUAGUGAUGUUAUAUGAGAGAAUGCCCUUGGCAGCGUGUGUAGUGGG [SSTheophylB.M] ? 155

// same read-out, input: AAUGCAUUGUGAAGGAGCGCGUUAAGCAGUGAUGUUGCUUUUAUAUUUUUCAGUUUUAUAUCGCAGGUAGGUCGCACUUUGCAUA [JR_Nu_SSArginiB_Sub029] 172

// same read-out, input: AAUUUACAUUAAUUAUUUAAAGGUUCAGAAGGAGCGUGAAUUAACACAGGUAGGUCGCUGAGCGAGUGAUGUUCGCUAUAUACUA [JR_ExcArginiA_Sub003] 62.7

// same read-out, input: UAAGAAUAAGUAGCAGUGAUGUUGCUACUACGAGGACCGGUACGGCCGCCACUCGAGCCGUACAAAGUAGCAACUAGUACGAAUA [(H1)-(H2)-(Trp1)-(Trp2)-(T)'-(H)'-(T)''] 231

// same read-out, input: UUAUAUACGAGUGAUGUUCGUUAUUUAUCAGAGGAUAUGCUUAAAUGCAGAAGGCUGUAUUUCUAUUUGAUAUUAAAUUUUAUAA [JR_Nu3_ExcFMNA_Sub026] 90.8

// same read-out, input: AGAUAGGGCUGAAGGAGCGUCGGAGAAGAGAAGAAGGAAUCCAGUGAUGUUGGAUAGAUCCGACAGGUAGGUCGCAGUUUUAUGA [hbob_SS_Arginine_B_2t139] 125

Values compiled from the supplement of paper PMC9170038.
